Test: Maximum concentration in rat
Format: ADME, organism-based
Conditions: in vivo
readoutType: Cmax (ng/mL)
The reply should be a number in ng/mL, with the unit left off.

Ask: Query (molecule): O=C(NCc1ccc(C(F)(F)F)cc1)Nc1cccc2cnccc12 ; field requested: Cmax
Reply: 3000

###

Target: Transient receptor potential cation channel subfamily V member 1 (Homo sapiens)
Sequence (Q8NER1 whole entry): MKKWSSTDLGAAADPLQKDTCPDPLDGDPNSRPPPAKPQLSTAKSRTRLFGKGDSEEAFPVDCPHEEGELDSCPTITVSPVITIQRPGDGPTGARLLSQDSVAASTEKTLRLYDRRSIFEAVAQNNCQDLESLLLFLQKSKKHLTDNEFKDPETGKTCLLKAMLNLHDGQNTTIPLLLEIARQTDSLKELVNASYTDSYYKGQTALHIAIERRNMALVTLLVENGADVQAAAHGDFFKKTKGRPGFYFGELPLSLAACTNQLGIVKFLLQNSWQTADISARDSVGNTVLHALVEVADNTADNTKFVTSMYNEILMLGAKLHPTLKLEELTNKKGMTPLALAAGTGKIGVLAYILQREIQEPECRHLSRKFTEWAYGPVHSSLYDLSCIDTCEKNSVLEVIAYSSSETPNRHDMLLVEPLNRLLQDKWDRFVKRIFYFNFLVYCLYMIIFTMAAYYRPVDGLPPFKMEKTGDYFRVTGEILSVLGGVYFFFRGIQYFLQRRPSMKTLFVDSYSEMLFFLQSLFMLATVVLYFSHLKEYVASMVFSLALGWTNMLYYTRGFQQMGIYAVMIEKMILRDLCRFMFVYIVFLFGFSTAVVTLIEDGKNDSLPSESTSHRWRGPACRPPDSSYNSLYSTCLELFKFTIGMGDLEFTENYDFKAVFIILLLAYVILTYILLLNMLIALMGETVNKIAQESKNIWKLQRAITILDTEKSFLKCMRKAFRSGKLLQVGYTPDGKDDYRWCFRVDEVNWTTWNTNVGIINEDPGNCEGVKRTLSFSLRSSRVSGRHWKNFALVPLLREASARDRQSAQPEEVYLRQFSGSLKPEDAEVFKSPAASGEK
A collection of molecules and their measured IC50
Quote the value and follow it with the unit of measurement.

See these solved cases before continuing.
>>> result("O=C(NCCc1cccc(C(F)(F)F)c1)Nc1cccc2cnccc12")
"20 nM"
>>> result("O=C(NCc1ccc(C(F)(F)F)cc1)Nc1cccc2cnccc12")
"4 nM"
>>> result("CSc1cccc(NC(=O)Nc2cccc3ccc(O)cc23)c1")
"22 nM"

Attention now shifts to the item below.
Ask: # lookup: IC50 of O=C(NCc1cccc(C(F)(F)F)c1)Nc1cccc2cnccc12
Reply: 51 nM

From: ChEMBL document CHEMBL1142650
